Entry source: patent US20240294543A1

Please respond with reported LogSel for every item in the list.
# testedSystem: human GABAA α1β3γ2 receptor (Homo sapiens (Human), UniProt P14867+P18507)
# assayProcedure: Radioligand binding assay, competition for [3H]Flumazenil, γ2-containing GABAA subtypes
# recordedConditions: Log[Ki α1β3γ2 (nM)/Ki α2β2γ1 (nM)], Table 1
Returns: the value as a bare number; no unit string appended.

The compound listed as Cc1nnc2n1-c1sc3c(c1C(c1c(F)cccc1F)=N[C@H]2C)CC[C@@H](F)CC3 (single isomer, unassigned) shows LogSel equal to 1.92

The compound listed as "C[C@@H]1N=C(c2c(F)cccc2F)c2c(sc3c2COCCC3)-n2cc(C(=O)NCC(C)(C)O)nc21" shows LogSel equal to 1.93

The compound listed as "CCc1nnc2n1-c1sc3c(c1C(c1c(F)cccc1F)=N[C@H]2C)COCCO3" shows LogSel equal to 2.13

The compound listed as "Cc1nnc2n1-c1sc3c(c1C(c1c(F)cccc1F)=N[C@H]2C)CCCC(F)(F)C3" shows LogSel equal to 1.73

----------
# testedSystem: human GABAA α1β3γ2 receptor (Homo sapiens (Human), UniProt P14867+P18507)
# assayProcedure: Radioligand binding assay, competition for [3H]Flumazenil, γ2-containing GABAA subtypes
# recordedConditions: Log[Ki α1β3γ2 (nM)/Ki α2β2γ1 (nM)], Table 1
Please respond with reported LogSel for every item in the list.
Returns: the value as a bare number; no unit string appended.

The compound listed as "CC(C)c1nnc2n1-c1sc3c(c1C(c1c(F)cccc1F)=N[C@H]2C)COCCO3" shows LogSel equal to 2.34

The compound listed as "[2H]C1([2H])OCc2c(sc3c2C(c2c(F)cccc2F)=N[C@@H](C)c2nc(C(=O)N4CCC4)nn2-3)OC1([2H])[2H]" shows LogSel equal to 3.12

The compound listed as "Cc1nnc2n1-c1sc3c(c1C(c1c(F)cccc1F)=N[C@H]2C)CCCCC3" shows LogSel equal to 2.13

The compound listed as Cc1nnc2n1-c1sc3c(c1C(c1c(F)cccc1F)=N[C@H]2C)CC[C@H](F)CC3 (single isomer, unassigned) shows LogSel equal to 2.46

The compound listed as "C[C@@H]1N=C(c2c(F)cccc2F)c2c(sc3c2COCCO3)-n2cc(C(=O)NCC(C)(C)O)nc21" shows LogSel equal to 2.16

The compound listed as "C[C@@H]1N=C(c2c(F)cccc2F)c2c(sc3c2COCCC3)-n2nc(C(=O)N[C@H]3C[C@@H](O)C3)nc21" shows LogSel equal to 2.15

The compound listed as "Cc1nnc2n1-c1sc3c(c1C(c1c(F)cccc1Cl)=N[C@H]2C)COCCO3" shows LogSel equal to 2.32

----------
# testedSystem: human GABAA α1β3γ2 receptor (Homo sapiens (Human), UniProt P14867+P18507)
# assayProcedure: Radioligand binding assay, competition for [3H]Flumazenil, γ2-containing GABAA subtypes
# recordedConditions: Log[Ki α1β3γ2 (nM)/Ki α2β2γ1 (nM)], Table 1
measurementKind: LogSel
Returns: the value as a bare number; no unit string appended.

The compound listed as "C[C@@H]1N=C(c2c(F)cccc2F)c2c(sc3c2COCCC3)-n2nc(C(=O)N[C@H]3C[C@H](O)C3)nc21" shows LogSel equal to 1.98

The compound listed as "Cc1nnc2n1-c1sc3c(c1C(c1c(F)cccc1F)=NC2)CCCCC3" shows LogSel equal to 1.70

The compound listed as "Cc1nnc2n1-c1sc3c(c1C(c1c(F)cccc1F)=N[C@H]2C)COCCC3" shows LogSel equal to 2.00

The compound listed as "Cc1cn2c(n1)[C@H](C)N=C(c1c(F)cccc1F)c1c-2sc2c1COCCC2" shows LogSel equal to 1.75

The compound listed as "C[C@@H]1N=C(c2c(F)cccc2F)c2c(sc3c2COCCO3)-n2c(C(F)F)nnc21" shows LogSel equal to 2.80

The compound listed as "Cc1cn2c(nc1=O)[C@H](C)N=C(c1c(F)cccc1F)c1c-2sc2c1CCCCC2" shows LogSel equal to 2.28

The compound listed as "Cc1nc2n(n1)-c1sc3c(c1C(c1c(F)cccc1F)=N[C@H]2C)COC[C@H](C)O3" shows LogSel equal to 2.20

The compound listed as "[2H]C1([2H])OCc2c(sc3c2C(c2c(F)cccc2F)=N[C@@H](C)c2nc(C(=O)NCC)nn2-3)OC1([2H])[2H]" shows LogSel equal to 2.35

----------
Please respond with reported Ki for every item in the list.
# testedSystem: human GABAA α2β2γ1 receptor (Homo sapiens (Human), UniProt P47869+Q8N1C3)
# assayProcedure: Radioligand binding assay, competition for [3H]RO7239181, γ1-containing GABAA subtypes
# recordedConditions: Ki h-GABAA α2β2γ1, Table 3, reference compounds and examples
I only need the number, in nM, no unit after it.

The molecule listed as Cc1nnc2n1-c1sc3c(c1C(c1c(F)cccc1F)=N[C@H]2C)COCCO3 [Example 21] shows Ki equal to 20.2

The molecule listed as Cc1nnc2n1-c1sc3c(c1C(c1c(F)cccc1F)=N[C@H]2C)COCCC3 [Example 52] shows Ki equal to 27.7

The molecule listed as Cc1nnc2n1-c1sc3c(c1C(c1c(F)cccc1F)=N[C@H]2C)CCCC3 [RE-B, reference compound] shows Ki equal to 57.7

The molecule listed as Cc1nnc2n1-c1sc3c(c1C(c1c(F)cccc1F)=NC2)CCCCC3 [Example 1] shows Ki equal to 7.5

----------
# testedSystem: human GABAA α2β2γ1 receptor (Homo sapiens (Human), UniProt P47869+Q8N1C3)
# assayProcedure: Radioligand binding assay, competition for [3H]RO7239181, γ1-containing GABAA subtypes
# recordedConditions: Ki h-GABAA α2β2γ1, membranes of HEK293F cells, [3H]RO7239181 20-30 nM, Table 1
measurementKind: pKi
Expect pKi as a plain number equal to -log10 of the molar concentration.

The compound listed as "CCc1nnc2n1-c1sc3c(c1C(c1c(F)cccc1F)=N[C@H]2C)COCCO3" shows pKi equal to 7.50

The compound listed as "C[C@@H]1N=C(c2c(F)cccc2F)c2c(sc3c2COCCO3)-n2nc(C(=O)N3CC(F)C3)nc21" shows pKi equal to 8.43

The compound listed as "Cc1nnc2n1-c1sc3c(c1C(c1c(F)cccc1F)=N[C@H]2C)CCCCO3" shows pKi equal to 7.77

The compound listed as "C[C@@H]1N=C(c2c(F)cccc2F)c2c(sc3c2CCCCC3)-n2c(-c3cccnn3)nnc21" shows pKi equal to 7.32

----------
Please respond with reported Efficacy (GABA) % for every item in the list.
# testedSystem: h-GABA-A α2β2γ1 (Homo sapiens (Human), UniProt P47869+Q8N1C3)
# assayProcedure: Two-electrode voltage clamp electrophysiology in Xenopus oocytes expressing GABAA receptors
# Assay type: cell-based
# recordedConditions: % modulation of GABA EC20 = 100*(Fold increase−1), compound at about 30-fold its Ki α2β2γ1
I only need the number, in %, no unit after it.

The compound listed as C[C@@H]1N=C(c2c(F)cccc2F)c2c(sc3c2COCCO3)-n2nc(C(=O)N3CC(F)C3)nc21 [Example 24] shows Efficacy (GABA) % equal to 59

The compound listed as Cc1nnc2n1-c1sc3c(c1C(c1c(F)cccc1F)=N[C@H]2C)CC[C@@H](F)CO3 [Example 56] shows Efficacy (GABA) % equal to 147

The compound listed as CCc1nnc2n1-c1sc3c(c1C(c1c(F)cccc1F)=N[C@H]2C)COCCO3 [Example 42] shows Efficacy (GABA) % equal to 137

The compound listed as C[C@@H]1N=C(c2c(F)cccc2F)c2c(sc3c2CCCCC3)-n2ccc(=O)nc21 [Example 7] shows Efficacy (GABA) % equal to 169

----------
# testedSystem: human GABAA α1β3γ2 receptor (Homo sapiens (Human), UniProt P14867+P18507)
# assayProcedure: Radioligand binding assay, competition for [3H]Flumazenil, γ2-containing GABAA subtypes
# recordedConditions: Log[Ki α1β3γ2 (nM)/Ki α2β2γ1 (nM)], Table 1
# Experimental: The affinity of compounds at GABAA γ2 subunit-containing receptors was measured by competition for [^3H]Flumazenil (81.1 Ci/mmol; Roche) binding to HEK293F cells expressing human (transiently transfected) receptors of composition α1β3γ2. Harvested pellets from HEK293F cells expressing the different GABAA γ2 receptor subtypes were resuspended in Mannitol Buffer pH 7,2-7,4 and processed as described above for the cells expressing the GABAA γ1 subunit-containing receptors. […]
Please respond with reported LogSel for every item in the list.
Returns: the value as a bare number; no unit string appended.

The compound listed as "CCc1nc2n(n1)-c1sc3c(c1C(c1c(F)cccc1F)=N[C@H]2C)COC[C@H](C)O3" shows LogSel equal to 2.22

The compound listed as "C[C@@H]1N=C(c2c(F)cccc2F)c2c(sc3c2COC[C@H](C)O3)-n2nc(C(=O)N3CC(F)C3)nc21" shows LogSel equal to 2.75

The compound listed as "Cc1nc2n(n1)-c1sc3c(c1C(c1c(F)cccc1F)=N[C@H]2C)CCCCC3" shows LogSel equal to 2.01

The compound listed as "C[C@@H]1N=C(c2c(F)cccc2F)c2c(sc3c2COC[C@H](C)O3)-n2nc(C(=O)NCCO)nc21" shows LogSel equal to 2.08

The compound listed as "CCOC1CN(C(=O)c2nc3n(n2)-c2sc4c(c2C(c2c(F)cccc2F)=N[C@H]3C)COCCO4)C1" shows LogSel equal to 2.91

The compound listed as "Cc1nnc2n1-c1sc3c(c1C(c1c(F)cccc1F)=N[C@H]2C)CC[C@@H](O)CC3" shows LogSel equal to 2.43

The compound listed as Cc1nnc2n1-c1sc3c(c1C(c1c(F)cccc1F)=N[C@H]2C)CCCCC3O (mixture of isomers) shows LogSel equal to 1.90

The compound listed as "C[C@@H]1N=C(c2c(F)cccc2F)c2c(sc3c2COCCO3)-n2nc(C(=O)NCCF)nc21" shows LogSel equal to 1.88
